targetOrSystem: AE.A244 V1V2 Tags (HIV-1)
assayName: ELISA
Give EC50 for every item shown.
State just the number; it will be interpreted in nM.

Query :: I am curious: what EC50 value has been reported for CH59 reverted unmutated ancestor antibody (antibody, V domains shown, also called CH59 RUA; CH59_RUA) VH: EVQLVESGGGLVQPGRSLRLSCAASGFTFDDYAMHWVRQAPGKGLEWVSGISWNSGSIGYADSVKGRFTISRDNAKNSLYLQMNSLRAEDTALYYCAKDSPRGELPFDYWGQGTLVTVSS VL: SYELTQPPSVSVSPGQTARITCSGDALPKKYAYWYQQKSGQAPVLVIYEDSKRPSGIPERFSGSSSGTMATLTISGAQVEDEADYYCYSTDSSGNHRVFGGGTKLTVL ?
Result :: 0.13

Query :: For the binder PG16 (antibody, V domains shown, also called mAb PG16; bnAb PG16) VH: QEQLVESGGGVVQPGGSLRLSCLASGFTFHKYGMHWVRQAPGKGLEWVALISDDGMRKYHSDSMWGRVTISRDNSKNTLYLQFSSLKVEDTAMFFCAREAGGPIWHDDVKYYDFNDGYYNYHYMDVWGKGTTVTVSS VL: QSALTQPASVSGSPGQTITISCNGTSSDVGGFDSVSWYQQSPGKAPKVMVFDVSHRPSGISNRFSGSKSGNTASLTISGLHIEDEGDYFCSSLTDRSHRIFGGGTKVTVL , what EC50 is on record?
Result :: 3.7

Query :: I have this binder here, 697D (antibody, V domains shown, also called mAb 697D; V2 conformational mAb 697D) VH: QVQLVQSGAEVKKPGSSVKVSCKASGGNFNTYTISWVRQAPGQGLEWMGRIIPIFGIVNPAQKFPGRVTINVDKSTNTAYMELSSLRSEDTAVYYCATSGVGLHFGYFDYWGQGTQVTVSS VL: QSVLTQPPSVSGAPGQRVTISCTGSSSNIGAHYDVHWYQQLPGTAPKLLIYGNSNRPSGVPDRFSGSKSGTSASLAITGLQAEDEADYYCQSYDSSLSGYVFGTGTKVTVL , and I need its recorded EC50.
Result :: 0.1

Query :: Endpoint output: EC50 of CH59 (antibody, V domains shown, also called mAb CH59) VH: EVQLVESGGGLVQPGRSLRLSCAASGFTFDDGAMHWVRQAPGKGLEWVSGISWNSNIIAYADSVKGRFTISRDNAKNSLYLEMNSLRVEDTALYYCAKDSPRGELPLNYWGQGTLVTVSS VL: SYELTQPPSVSVSPGQTARITCSGDALPKNYAYWYQQKSGQAPVLVIYEDSKRPSGIPERFSGSSSGTMATLTISGAQVEDEADYYCYSTDSSGNHRVFGGGTKLTVL . Value?
Result :: 0.014
